B1: HDV Ribozyme (parent)
chain: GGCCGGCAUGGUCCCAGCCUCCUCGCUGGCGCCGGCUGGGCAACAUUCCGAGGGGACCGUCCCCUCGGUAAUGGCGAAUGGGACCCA

variants of: B1; test: self-cleavage, relative activity (ratio to wild type); higher = more cleavage; co-transcriptional
Measured self-cleavage, listed per entry for reference.
Quick one: just the number, no unit, thanks!

Here is how some variants turned out for self-cleavage.
mutant id: C24G U47A
self-cleavage: 0.106
--
mutant id: C21U U60C
self-cleavage: 0.219
--
mutant id: A16G U79A
self-cleavage: 0.997
--
mutant id: C24U G82C
self-cleavage: 0.163

The variant U12A G82U showed self-cleavage equal to 0.161

Entry G38U G40U — recorded self-cleavage = 0.19
